// provenance: patent US7452965

Target: HT29 protein (unidentified protease-sensitive cell surface protein on HT29 colon carcinoma cells that the RPM peptide binds)
Assay: competition with RPM displaying phage on HT29 cells, real time PCR
Bridge positions count the residues as written; N and C are the ends. Ends that are not written are not given here.
PROPERTY_NAME: pEC50
Friendly reminder that pEC50 comes from taking -log10 of the concentration in mol/L.

IN: Can you share its pEC50? I mean this binder: CPIEDRPAC [RPA peptide (RPM peptide with the methionine mutated to alanine)]
OUT: 3.26

IN: Can you share its pEC50? I mean this binder: CPIEDRPMC (disulfide 1-9 (inferred)) [RPM peptide … (SEQ ID NO: 134), synthetic, oxidized to form a disulfide bond]
OUT: 5.30

IN: Can you share its pEC50? I mean this binder: CPIEDAPMC [APM peptide (RPM peptide with the arginine mutated to alanine)]
OUT: 3.16
